Every entry's value here was drawn from PubChem BioAssay AID1347423.

experimental_details: Resistance to Poly (ADP-Ribose) Polymerase inhibitor: Gene Identification via Genome-wide siRNA Screen
measurement_parameters: mouse BRCA2 R2336H ES cells, olaparib, CellTiter-Glo viability
Procedure: The role of Poly (ADP-Ribose) Polymerase (PARP) proteins in DNA repair has been elegantly utilized for the synthetic lethality-based treatment of BRCA-deficient tumors by PARP inhibitors. […] Transfections were performed in 384 well plates (Corning 3707). […] Cell viability was measured using CellTiter Glo (Promega). […] PARPi (olaparib, AZD2281) was added 48 h post-transfection (500 nM) and viability (CellTiter Glo, Promega) was assayed 72 h later on a PerkinElmer Envision 2104 Multilabel plate reader. […]
Among all 52,000 sequences or so, about 210 (0.4%) were called active.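 Rule for the calls: active = gene whose silencing raises cell survival under the drug, median off-target-corrected z-score across its silencing RNAs 2 or more; inactive = the rest.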 Shown is part of a subset that was picked to be rich in actives.
Log the outcome using a class from class 1 for active, class 0 for inactive

Illustrative cases are given below, each with its answer.
- GGUAUUCUCUAAGAAGGAGTT against Ccbl1: class 0
- GGAAUUUUCUAUAGUCCGGTT against Flrt2: class 0
- GGAGUGAUUAACCUAACUCTT against Crip3: class 1

From here, focus on the item given below.
In: // return assay outcome for GGAUGAAAAAUACUGGUGUTT against Ugt8
Out: class 0
